Give measured activity at 300 g/ha for each item. Keep answers brief.
- Test system: chickweed
- EXPERIMENTAL DETAILS: preemergence herbicidal activity on chickweed
- Assay type: in vivo
- PARTICULARS: Stellaria media, pre-emergence, 0.3 Kg/Ha, after 12-17 days, read-out: PREEMERGENCE HERBICIDAL ACTIVITY (% CONTROL) STEME
- Experimental: The (oxaalkyl)phenyl-substituted heterocycles of this invention were tested for pre- and postemergence herbicidal activity using a variety of crops and weeds. […] The preemergence flats were initially subjected to a light water spray. […] After 12-17 days the plants were examined and the phytotoxicity data were recorded. […]
One number for each entry, in %.

In the examples that follow, each entry is paired with its recorded activity at 300 g/ha.
Cc1nn(-c2cc(CC(Cl)COC(=O)NC(C)(C)C)c(Cl)cc2F)c(=O)n1C(F)F (stereo not drawn) [Compound 33] ... 90
Cn1c(C(F)(F)F)cc(=O)n(-c2cc(CC(Cl)C(C)(C)O)c(Cl)cc2F)c1=O (stereo not drawn) [Compound 1] ... 100
Cc1nn(-c2cc(CC(Cl)C(C)(C)O)c(Cl)cc2F)c(=O)n1C(F)F (stereo not drawn) [Compound 2] ... 90
Cc1nn(-c2cc(CC(Cl)COC(=O)NC(C)C)c(Cl)cc2F)c(=O)n1C(F)F (stereo not drawn) [Compound 34] ... 100
CC(=O)OC(C)(C)C(Cl)Cc1cc(-c2nn(C)c(OC(F)F)c2Cl)c(F)cc1Cl (stereo not drawn) [Compound 18] ... 100

Each of the following entries comes with a recorded value; kindly state activity at 300 g/ha for each.
1. Cc1nn(-c2cc(CC(Cl)COC(=O)NC3CCCCC3)c(Cl)cc2F)c(=O)n1C(F)F (stereo not drawn) [Compound 35]
2. CC(=O)OC(C)(C)C(Cl)Cc1cc(-n2nc(C)n(C(F)F)c2=O)c(F)cc1Cl (stereo not drawn) [Compound 17]
3. Cn1nc(-c2cc(CC(Cl)C(C)(C)O)c(Cl)cc2F)c(Cl)c1OC(F)F (stereo not drawn) [Compound 3]
4. CC(=O)OC(C)(C)C(Cl)Cc1cc(-n2c(=O)cc(C(F)(F)F)n(C)c2=O)c(F)cc1Cl (stereo not drawn) [Compound 16]

Return:
1. 100
2. 95
3. 100
4. 100
